Listed next: entries and their corresponding EC50.
- targetOfAssay: Orexin/Hypocretin receptor type 1 (Homo sapiens, UniProt O43613)
- Sequence (O43613 whole entry): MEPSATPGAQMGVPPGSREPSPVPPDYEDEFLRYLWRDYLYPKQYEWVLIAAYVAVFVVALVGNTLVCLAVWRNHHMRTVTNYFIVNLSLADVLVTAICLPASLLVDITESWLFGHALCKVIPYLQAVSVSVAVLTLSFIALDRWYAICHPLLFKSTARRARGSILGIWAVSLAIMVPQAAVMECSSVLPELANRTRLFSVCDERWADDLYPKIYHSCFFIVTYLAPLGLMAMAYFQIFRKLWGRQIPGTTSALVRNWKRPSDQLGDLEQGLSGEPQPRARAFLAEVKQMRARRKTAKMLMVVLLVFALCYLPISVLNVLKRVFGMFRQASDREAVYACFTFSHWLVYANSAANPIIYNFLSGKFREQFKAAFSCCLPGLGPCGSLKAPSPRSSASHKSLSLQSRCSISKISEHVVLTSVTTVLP
- testSummary: Agonist activity at human OX1 receptor overexpressed in CHO-RD-HGA16 cells assessed as calcium mobilization after 15 mins by fluorescence assay
Where a SMILES comes first, the peptide text is derived from it.
Numbers only here, please. The scale is nM.

Worked set:
CC[C@H](C)[C@H](NC(=O)CNC(=O)[C@H](C)NC(=O)[C@H](C)NC(=O)[C@H](Cc1cnc[nH]1)NC(=O)[C@H](CC(N)=O)NC(=O)CNC(=O)[C@H](C)NC(=O)CNC(=O)[C@H](Cc1cnc[nH]1)NC(=O)[C@H](CC(C)C)NC(=O)[C@H](CC(C)C)NC(=O)[C@H](CCC(=O)O)NC(=O)[C@@H]1CCCN1)C(=O)N[C@@H](CC(C)C)C(=O)N[C@H](C(=O)N[C@@H](CC(C)C)C(N)=O)[C@@H](C)O (H-PELLHGAGNHAAGILTL-NH2) | 1370
CC[C@H](C)[C@H](NC(=O)CNC(=O)[C@H](C)NC(=O)[C@H](C)NC(=O)[C@H](Cc1cnc[nH]1)NC(=O)[C@H](CC(N)=O)NC(=O)CNC(=O)[C@H](C)NC(=O)CNC(=O)[C@H](Cc1cnc[nH]1)NC(=O)[C@H](CC(C)C)NC(=O)[C@H](CC(C)C)NC(=O)[C@@H]1CCCN1C(=O)[C@@H](N)Cc1ccc(O)cc1)C(=O)N[C@@H](CC(C)C)C(=O)N[C@H](C(=O)N[C@@H](CC(C)C)C(N)=O)[C@@H](C)O (H-YPLLHGAGNHAAGILTL-NH2) | 143
CC[C@H](C)[C@H](NC(=O)CNC(=O)[C@H](C)NC(=O)[C@H](C)NC(=O)[C@H](Cc1c[nH]cn1)NC(=O)[C@H](CC(N)=O)NC(=O)CNC(=O)[C@H](C)NC(=O)CNC(=O)[C@H](Cc1c[nH]cn1)NC(=O)[C@H](CC(C)C)NC(=O)[C@@H](N)CC(C)C)C(=O)N[C@@H](CC(C)C)C(=O)N[C@H](C(=O)N[C@@H](CC(C)C)C(N)=O)[C@@H](C)O (H-LLHGAGNHAAGILTL-NH2) | 1380
CC[C@H](C)[C@H](NC(=O)CNC(=O)[C@H](C)NC(=O)[C@H](C)NC(=O)[C@H](Cc1cnc[nH]1)NC(=O)[C@H](CC(N)=O)NC(=O)CNC(=O)[C@H](CO)NC(=O)[C@H](C)NC(=O)[C@H](CCC(N)=O)NC(=O)[C@H](CC(C)C)NC(=O)[C@H](CC(C)C)NC(=O)[C@H](CCCNC(=N)N)NC(=O)[C@H](CCC(N)=O)NC(=O)[C@H](CC(C)C)NC(=O)[C@@H](N)CCCNC(=N)N)C(=O)N[C@@H](CC(C)C)C(=O)N[C@H](C(=O)N[C@@H](CCSC)C(N)=O)[C@@H](C)O (H-RLQRLLQASGNHAAGILTM-NH2) | 144

Next, consider the following compound.
Ask: Value wanted: EC50 (Orexin/Hypocretin receptor type 1 (Homo sapiens, UniProt O43613)) of entry CC[C@H](C)[C@H](NC(=O)CNC(=O)[C@H](C)NC(=O)[C@H](C)NC(=O)[C@H](Cc1cnc[nH]1)NC(=O)[C@H](CC(N)=O)NC(=O)CNC(=O)[C@H](C)NC(=O)CNC(=O)[C@H](Cc1cnc[nH]1)NC(=O)[C@H](CC(C)C)NC(=O)[C@H](C)NC(=O)[C@H](CCC(=O)O)NC(=O)[C@@H](N)Cc1ccc(O)cc1)C(=O)N[C@@H](CC(C)C)C(=O)N[C@H](C(=O)N[C@@H](CC(C)C)C(N)=O)[C@@H](C)O (H-YEALHGAGNHAAGILTL-NH2)
Reply: 212

====

- targetOfAssay: Orexin receptor type 2 (Homo sapiens, UniProt O43614)
- Sequence (O43614 whole entry): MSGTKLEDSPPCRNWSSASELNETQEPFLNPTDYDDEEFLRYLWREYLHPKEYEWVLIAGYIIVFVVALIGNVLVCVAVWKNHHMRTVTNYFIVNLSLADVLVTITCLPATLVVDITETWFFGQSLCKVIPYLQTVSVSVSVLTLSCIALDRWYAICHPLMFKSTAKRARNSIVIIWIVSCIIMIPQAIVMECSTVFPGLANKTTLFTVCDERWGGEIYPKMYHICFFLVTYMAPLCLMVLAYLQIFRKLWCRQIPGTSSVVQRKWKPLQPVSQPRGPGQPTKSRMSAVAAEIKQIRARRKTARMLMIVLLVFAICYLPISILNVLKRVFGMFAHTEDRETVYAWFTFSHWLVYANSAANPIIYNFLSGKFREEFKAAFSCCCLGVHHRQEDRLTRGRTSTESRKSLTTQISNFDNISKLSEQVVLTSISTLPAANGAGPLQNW
- testSummary: Agonist activity at human OX2 receptor overexpressed in CHO-RD-HGA16 cells assessed as calcium mobilization after 15 mins by fluorescence assay
Where a SMILES comes first, the peptide text is derived from it.
resultType: EC50

CC[C@H](C)[C@H](NC(=O)CNC(=O)[C@H](C)NC(=O)[C@H](C)NC(=O)[C@H](Cc1cnc[nH]1)NC(=O)[C@H](CC(N)=O)NC(=O)CNC(=O)[C@H](C)NC(=O)CNC(=O)[C@H](Cc1cnc[nH]1)NC(=O)[C@H](CC(C)C)NC(=O)[C@H](CC(C)C)NC(=O)[C@@H](CCC(=O)O)NC(=O)[C@@H](N)Cc1ccc(O)cc1)C(=O)N[C@@H](CC(C)C)C(=O)N[C@H](C(=O)N[C@@H](CC(C)C)C(N)=O)[C@@H](C)O | 2140 nM

# next compound below
Ask: Need EC50 of CC[C@H](C)[C@H](NC(=O)CNC(=O)[C@H](C)NC(=O)[C@H](C)NC(=O)[C@H](Cc1cnc[nH]1)NC(=O)[C@H](CC(N)=O)NC(=O)CNC(=O)[C@H](CO)NC(=O)[C@H](C)NC(=O)[C@H](CCC(N)=O)NC(=O)[C@H](CC(C)C)NC(=O)[C@H](CC(C)C)NC(=O)[C@H](CCCNC(=N)N)NC(=O)[C@H](CCC(N)=O)NC(=O)[C@H](CC(C)C)NC(=O)[C@@H](N)CCCNC(=N)N)C(=O)N[C@@H](CC(C)C)C(=O)N[C@H](C(=O)N[C@@H](CCSC)C(N)=O)[C@@H](C)O (H-RLQRLLQASGNHAAGILTM-NH2) , thanks.
Reply: 99.3 nM

====

- Species on record: Homo sapiens
- testSummary: Selectivity ratio of EC50 for human OX2 receptor to EC50 for human OX1 receptor
Where a SMILES comes first, the peptide text is derived from it.
resultType: Ratio EC50
Number only, no unit.

CC[C@H](C)[C@H](NC(=O)CNC(=O)[C@H](C)NC(=O)[C@H](C)NC(=O)[C@H](Cc1c[nH]cn1)NC(=O)[C@H](CC(N)=O)NC(=O)CNC(=O)[C@H](C)NC(=O)CNC(=O)[C@H](Cc1c[nH]cn1)NC(=O)[C@H](CC(C)C)NC(=O)[C@H](CC(C)C)NC(=O)[C@H](CCC(=O)O)NC(=O)[C@@H](N)Cc1ccc(O)cc1)C(=O)N[C@@H](CC(C)C)C(=O)N[C@H](C(=O)N[C@@H](CC(C)C)C(N)=O)[C@@H](C)O | 23

Ask: Entry under review: CC[C@H](C)[C@H](NC(=O)CNC(=O)[C@H](C)NC(=O)[C@H](C)NC(=O)[C@H](C)NC(=O)[C@H](CC(N)=O)NC(=O)CNC(=O)[C@H](C)NC(=O)CNC(=O)[C@H](Cc1cnc[nH]1)NC(=O)[C@H](CC(C)C)NC(=O)[C@H](CC(C)C)NC(=O)[C@H](CCC(=O)O)NC(=O)[C@@H](N)Cc1ccc(O)cc1)C(=O)N[C@@H](CC(C)C)C(=O)N[C@H](C(=O)N[C@@H](CC(C)C)C(N)=O)[C@@H](C)O (H-YELLHGAGNAAAGILTL-NH2) . Reported Ratio EC50?
Reply: 0.5

====

# reported Ratio EC50; entries follow
- Species: Homo sapiens
- testSummary: Selectivity ratio of EC50 for human OX2 receptor to EC50 for human OX1 receptor
Where a SMILES comes first, the peptide text is derived from it.

Example results:
CC[C@H](C)[C@H](NC(=O)CNC(=O)[C@H](C)NC(=O)[C@H](C)NC(=O)[C@H](Cc1cnc[nH]1)NC(=O)[C@H](CC(N)=O)NC(=O)CNC(=O)[C@H](C)NC(=O)CNC(=O)[C@H](Cc1cnc[nH]1)NC(=O)[C@H](CC(C)C)NC(=O)[C@@H]1CCCN1C(=O)[C@H](CCC(=O)O)NC(=O)[C@@H](N)Cc1ccc(O)cc1)C(=O)N[C@@H](CC(C)C)C(=O)N[C@H](C(=O)N[C@@H](CC(C)C)C(N)=O)[C@@H](C)O (H-YEPLHGAGNHAAGILTL-NH2) | 1.2
CC[C@H](C)[C@H](NC(=O)CNC(=O)[C@H](C)NC(=O)[C@H](C)NC(=O)[C@H](Cc1cnc[nH]1)NC(=O)[C@H](CC(N)=O)NC(=O)CNC(=O)[C@H](C)NC(=O)CNC(=O)[C@H](Cc1cnc[nH]1)NC(=O)[C@H](CC(C)C)NC(=O)[C@H](C)NC(=O)[C@H](CCC(=O)O)NC(=O)[C@@H](N)Cc1ccc(O)cc1)C(=O)N[C@@H](CC(C)C)C(=O)N[C@H](C(=O)N[C@@H](CC(C)C)C(N)=O)[C@@H](C)O (H-YEALHGAGNHAAGILTL-NH2) | 8.9
CC[C@H](C)[C@H](NC(=O)CNC(=O)[C@H](C)NC(=O)[C@H](C)NC(=O)[C@H](Cc1c[nH]cn1)NC(=O)[C@H](CC(N)=O)NC(=O)CNC(=O)[C@H](C)NC(=O)CNC(=O)[C@H](Cc1c[nH]cn1)NC(=O)[C@H](CC(C)C)NC(=O)[C@@H](N)CC(C)C)C(=O)N[C@@H](CC(C)C)C(=O)N[C@H](C(=O)N[C@@H](CC(C)C)C(N)=O)[C@@H](C)O (H-LLHGAGNHAAGILTL-NH2) | 0.7

Ask: Query: Ratio EC50; subject: "CC[C@H](C)[C@H](NC(=O)CNC(=O)[C@H](C)NC(=O)[C@@H](C)NC(=O)[C@H](Cc1cnc[nH]1)NC(=O)[C@H](CC(N)=O)NC(=O)CNC(=O)[C@H](C)NC(=O)CNC(=O)[C@H](Cc1cnc[nH]1)NC(=O)[C@H](CC(C)C)NC(=O)[C@H](CC(C)C)NC(=O)[C@H](CCC(=O)O)NC(=O)[C@@H](N)Cc1ccc(O)cc1)C(=O)N[C@@H](CC(C)C)C(=O)N[C@H](C(=O)N[C@@H](CC(C)C)C(N)=O)[C@@H](C)O"
Reply: 0.7

Ask: Which Ratio EC50 is listed for CC[C@H](C)[C@H](NC(=O)CNC(=O)[C@H](C)NC(=O)[C@H](C)NC(=O)[C@H](Cc1cnc[nH]1)NC(=O)[C@H](CC(N)=O)NC(=O)CNC(=O)[C@H](C)NC(=O)CNC(=O)[C@@H]1CCCN1C(=O)[C@H](CC(C)C)NC(=O)[C@H](CC(C)C)NC(=O)[C@H](CCC(=O)O)NC(=O)[C@@H](N)Cc1ccc(O)cc1)C(=O)N[C@@H](CC(C)C)C(=O)N[C@H](C(=O)N[C@@H](CC(C)C)C(N)=O)[C@@H](C)O (H-YELLPGAGNHAAGILTL-NH2) ?
Reply: 1.7
